Target: p38 MAP-kinase (Homo sapiens, UniProt Q16539)
Sequence (Q16539 whole entry): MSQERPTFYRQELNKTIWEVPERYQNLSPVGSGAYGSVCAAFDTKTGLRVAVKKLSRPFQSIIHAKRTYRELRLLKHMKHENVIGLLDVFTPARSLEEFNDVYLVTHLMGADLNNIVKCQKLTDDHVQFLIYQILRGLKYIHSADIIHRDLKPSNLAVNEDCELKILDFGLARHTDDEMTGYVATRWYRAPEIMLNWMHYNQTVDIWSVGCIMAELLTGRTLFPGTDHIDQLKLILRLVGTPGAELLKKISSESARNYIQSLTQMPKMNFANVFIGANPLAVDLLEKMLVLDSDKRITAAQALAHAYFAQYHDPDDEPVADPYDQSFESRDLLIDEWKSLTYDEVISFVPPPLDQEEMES
Assay: Enzymatic assay: inhibition of p38 MAP-kinase (phosphorylation of GST-tagged ATF2, chemoluminescence bead readout)
Assay type: biochemical
Details: inhibitor 1 μM; activated p38 MAP-kinase 1 nM; 4 h preincubation; ATP 100 μM; ATF2 10 nM; read-out: % inhibitory effect at 1 μM

Molecule	inhibition at 1 µM / %
COc1c(NC(=O)c2ccc(C)c(Oc3ccnc(CN4CCCN(C)CC4)n3)c2)cc(C(C)(C)C)cc1NS(C)(=O)=O	98.7
COc1c(NC(=O)c2ccc(C)c(Oc3ccnc(CC4CCNCC4)c3)c2)cc(C(F)(F)C(F)(F)F)cc1NS(C)(=O)=O	99.6
COc1c(NC(=O)c2ccc(C)c(Oc3ccnc(CN[C@H]4CCOC4)c3)c2)cc(C(C)(C)C)cc1NS(C)(=O)=O	96.7
COc1c(NC(=O)c2ccc(C)c(Oc3ccnc(CC4CCNCC4)c3)c2)cc(C(C)(C)C)cc1NS(=O)(=O)C(C)C	99.6
COc1c(NC(=O)c2cc(F)c(C)c(Oc3ccnc(CN4CCN(C)CC4)n3)c2)cc(C(C)(C)C)cc1NS(C)(=O)=O	98.8
COc1c(NC(=O)c2ccc(C)c(Oc3cc(NCCN(C)C)ncn3)c2)cc(C(C)(C)C)cc1NS(C)(=O)=O	94.8
Cc1ccc(C(=O)Nc2cc(C(C)(C)C)cc(NS(C)(=O)=O)c2OC(C)C)cc1Oc1ccnc(CC2CCNCC2)c1	93.2
COc1c(NC(=O)c2ccc(C)c(Oc3cc(NC4CCN(C)CC4)ncn3)c2)cc(C(C)(C)C)cc1NS(C)(=O)=O	100
COc1c(NC(=O)c2ccc(C)c(Oc3ccnc(CNC4CCN(C)C4)n3)c2)cc(C(C)(C)C)cc1NS(C)(=O)=O (stereo not drawn)	97.8
